study-target: EGFR wildtype (WT) (Homo sapiens, UniProt P00533)
Sequence (P00533 25-1210): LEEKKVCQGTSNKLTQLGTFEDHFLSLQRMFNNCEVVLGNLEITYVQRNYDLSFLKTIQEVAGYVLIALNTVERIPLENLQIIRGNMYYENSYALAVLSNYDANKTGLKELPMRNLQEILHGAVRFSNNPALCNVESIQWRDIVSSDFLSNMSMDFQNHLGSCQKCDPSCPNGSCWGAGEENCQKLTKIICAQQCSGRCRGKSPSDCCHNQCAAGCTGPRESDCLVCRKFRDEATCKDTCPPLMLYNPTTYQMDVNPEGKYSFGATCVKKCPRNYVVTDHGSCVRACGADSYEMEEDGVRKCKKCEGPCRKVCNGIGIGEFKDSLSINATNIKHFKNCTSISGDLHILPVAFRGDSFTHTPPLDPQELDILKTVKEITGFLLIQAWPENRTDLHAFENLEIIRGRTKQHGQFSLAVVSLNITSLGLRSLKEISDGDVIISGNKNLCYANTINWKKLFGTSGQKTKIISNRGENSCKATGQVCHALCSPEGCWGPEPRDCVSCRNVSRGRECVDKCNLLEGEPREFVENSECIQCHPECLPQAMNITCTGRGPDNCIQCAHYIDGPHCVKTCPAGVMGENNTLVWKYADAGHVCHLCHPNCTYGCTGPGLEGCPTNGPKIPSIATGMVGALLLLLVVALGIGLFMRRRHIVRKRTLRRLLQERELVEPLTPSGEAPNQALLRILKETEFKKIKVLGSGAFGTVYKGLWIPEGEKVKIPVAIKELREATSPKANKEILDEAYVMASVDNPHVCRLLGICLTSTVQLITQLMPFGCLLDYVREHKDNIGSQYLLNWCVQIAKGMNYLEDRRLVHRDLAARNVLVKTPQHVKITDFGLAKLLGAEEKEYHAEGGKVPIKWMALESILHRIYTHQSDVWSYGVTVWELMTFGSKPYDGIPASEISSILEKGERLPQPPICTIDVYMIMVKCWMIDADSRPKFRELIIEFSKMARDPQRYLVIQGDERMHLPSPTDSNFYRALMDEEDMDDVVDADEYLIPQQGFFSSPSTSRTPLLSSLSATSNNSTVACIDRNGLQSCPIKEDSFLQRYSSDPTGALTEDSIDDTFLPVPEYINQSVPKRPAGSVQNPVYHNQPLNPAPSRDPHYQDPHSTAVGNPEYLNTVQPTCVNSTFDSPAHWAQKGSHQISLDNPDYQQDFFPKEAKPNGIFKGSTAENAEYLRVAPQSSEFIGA
protocol-details: Biochemical EGFR kinase inhibition assay (Lance Ultra TR-FRET), wildtype
measurement-setup: Km ATP; read-out: IC50 WT (nM), Km ATP
Description: Biochemical EGFR kinase assays were conducted using Lance Ultra time-resolved fluorescence resonance energy transfer (TR-FRET) technology from Perkin-Elmer. […] Each kinase reactions were incubated at room temperature for 1 hour and then stopped by the addition of 4 μL of stop solution (10 mM EDTA). […] After 60 minutes incubation at room temperature the LANCE signal was measured on an EnVision Multilabel Reader (Perkin-Elmer). […]
parameter: IC50 (nM)

{"compound": "CC1OCCC1C#Cc1cnc(Nc2ccnc(-c3cnn(S(=O)(=O)C4CC4)c3)n2)cc1NC1CCC(CO)CC1 (stereo not drawn) [Example 430]", "study-target": "EGFR wildtype (WT) (Homo sapiens, UniProt P00533)", "IC50 (nM)": 6.9}

P = O=S(=O)(C1CC1)n1cc(-c2nccc(Nc3cc(N4CCC5(CCO5)CC4)c(C#Cc4ncc(CN5CCOCC5)cn4)cn3)n2)cn1 [Example 367]
Q = CC1(CO)CCN(c2cc(Nc3ccnc(-c4cnn(S(=O)(=O)C5CC5)c4)n3)ncc2C#CC2CCN(S(=O)(=O)C3CC3)C2)CC1 (stereo not drawn) [Example 395]
R = O=S(=O)(C1CC1)n1cc(-c2nccc(Nc3cc(NC[C@H]4CC[C@H](CO)CC4)c(C#Cc4cnn(CCF)c4)cn3)n2)cn1 [Example 381]
Query: In this exercise, place the 3 compounds in ascending sequence of their recorded IC50. Your task in answering is to list the labels in the requested order.
Result: P, Q, R

a = CS(=O)(=O)N1CCC(C#Cc2cnc(Nc3ccnc(-c4cnn(S(=O)(=O)C5CC5)c4)n3)cc2NC2CCC(CO)CC2)C1 (stereo not drawn) [Example 397]
b = CC1OCCC1C#Cc1cnc(Nc2ccnc(-c3cnn(S(=O)(=O)C4CC4)c3)n2)cc1N1CCC(C)(CO)CC1 (stereo not drawn) [Example 438]
Query: Endpoint returns the identifier whose IC50 is numerically larger, either a or b . Answer by quoting the chosen item's label.
Result: a
(a: 16.9 nM, b: 5.8 nM)

These entries and their values trace back to patent US11981658B2.
